- System: HaCat keratinocyte
- protocol_text: in vitro inhibition of cell proliferation / survival assay
- Format: cell-based
- study_conditions: Homo sapiens, measured at 25 μM after 48 h, single dose, triplicate
readout_type: viability at 25 µM (%)
Report only the number, with the unit % understood.

compound	assayed_system	val
COc1cc(/C=C2\SC(=S)N(CCCCNCc3ccc4c(c3)OCO4)C2=O)ccc1O [Compound 9k]	HaCat keratinocyte	80
COc1ccc(CNCCCCN2C(=O)/C(=C/c3ccc4c(c3)OCCO4)SC2=S)cc1 [Compound 9c]	HaCat keratinocyte	101

Here's the next entry for you.
Field request: viability at 25 µM | item: CC(=O)O[C@H]1C(=O)[C@@]2(C)[C@H]([C@H](OC(=O)c3ccccc3)[C@]3(O)C[C@H](OC(=O)[C@H](O)[C@@H](NC(=O)c4ccccc4)c4ccccc4)C(C)=C1C3(C)C)[C@]1(OC(C)=O)CO[C@@H]1C[C@@H]2O [Taxol, reference compound]
11

----------
- System: HCT 116 cells (actively proliferating colorectal adenocarcinoma)
- protocol_text: in vitro inhibition of cell proliferation / survival assay
- Type: cell-based
- study_conditions: measured at 25 μM after 48 h, single dose, triplicate
readout_type: % of Survival

Worked examples, 3 molecules total:
1. COc1cccc(CNCCCCN)c1.Cl 111%
2. Cl.NCCCCNCc1ccc2c(c1)OCCO2 96%
3. Cl.NCCCCNCc1ccccc1Cl 98%

Identify the measured % of Survival of `COc1ccc(CNCCCCN)cc1.Cl` for HCT 116 cells (actively proliferating colorectal adenocarcinoma).
112%

----------
- Tested on: HaCat keratinocyte
- protocol_text: in vitro inhibition of cell proliferation / survival assay
- Format: cell-based
- study_conditions: Homo sapiens, measured at 25 μM after 48 h, single dose, triplicate
- Description: As an initial effort to investigate their in vitro bioactivity, the new synthesized 3-(4-arylmethylamino)butyl-2-thioxo-1,3-thiazolidine-4-one 9a–n and also their precursors 6a–f were evaluated for their in vitro inhibition of cell proliferation. […] Skin diploid fibroblastic cells were provided by BIOPREDIC International Company (Rennes, France). […] The IC50 were graphically determined.
readout_type: viability at 25 µM (%)
Report only the number, with the unit % understood.

molecule	measurement_units	val
COc1cccc2c1C(=O)c1c(O)c3c(c(O)c1C2=O)C[C@@](O)(C(=O)CO)C[C@@H]3O[C@H]1C[C@H](N)[C@H](O)[C@H](C)O1 [Doxorubicine, reference compound]	%	88
O=C1/C(=C/c2ccc3c(c2)OCCO3)SC(=S)N1CCCCNCc1ccc2c(c1)OCCO2	%	94
Cl.NCCCCNCc1ccccc1	%	97
O=C1/C(=C/c2ccc3c(c2)OCCO3)SC(=S)N1CCCCNCc1ccc2c(c1)OCO2	%	6

Here's the next entry for you.
Field request: viability at 25 µM | item: `O=C1/C(=C/c2ccc3c(c2)OCO3)SC(=S)N1CCCCNCc1ccc2c(c1)OCCO2`
95
